meta.source: the supplement of paper PMC11732987

molecular target: USP16 (UniProt Q9Y5T5); test: log2 ratio of Biotin-Ahx-Ub-VS probe labelling (fragment/DMSO); higher = less target engagement (more negative = stronger competition), active = hit call of the paper (q ≤ 0.05, log2 ratio ≤ -1); conditions: compound concentration: 200 uM; treatment time: 3 h
Sequence (Q9Y5T5 whole entry, looked up, the tested form may be a part): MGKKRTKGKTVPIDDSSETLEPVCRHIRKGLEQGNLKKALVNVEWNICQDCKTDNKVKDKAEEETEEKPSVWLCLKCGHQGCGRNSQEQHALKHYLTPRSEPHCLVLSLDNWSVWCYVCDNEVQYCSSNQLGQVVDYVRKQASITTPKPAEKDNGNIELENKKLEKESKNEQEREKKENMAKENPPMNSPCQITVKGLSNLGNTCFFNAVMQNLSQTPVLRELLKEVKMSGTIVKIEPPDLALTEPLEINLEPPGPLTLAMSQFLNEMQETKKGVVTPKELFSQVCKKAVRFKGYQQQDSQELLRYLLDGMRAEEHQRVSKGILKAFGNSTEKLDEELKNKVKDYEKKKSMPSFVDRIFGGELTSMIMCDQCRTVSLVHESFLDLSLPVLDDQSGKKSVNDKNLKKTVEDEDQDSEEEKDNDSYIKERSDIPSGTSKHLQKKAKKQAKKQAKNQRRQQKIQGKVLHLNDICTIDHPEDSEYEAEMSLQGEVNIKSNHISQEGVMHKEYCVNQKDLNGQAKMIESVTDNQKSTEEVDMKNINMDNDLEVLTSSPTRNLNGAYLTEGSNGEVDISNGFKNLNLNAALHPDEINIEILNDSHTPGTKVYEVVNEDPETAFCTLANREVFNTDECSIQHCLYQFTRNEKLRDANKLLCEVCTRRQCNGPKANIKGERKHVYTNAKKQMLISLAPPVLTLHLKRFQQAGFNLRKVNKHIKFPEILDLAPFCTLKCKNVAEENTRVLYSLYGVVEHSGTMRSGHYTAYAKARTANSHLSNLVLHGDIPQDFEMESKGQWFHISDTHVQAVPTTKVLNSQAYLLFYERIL
List of log2 ratio of Biotin-Ahx-Ub-VS probe labelling values.
Quick one: just the number, no unit, thanks!

Observe how each entry below is paired with its result.
INSERT INTO assay_data (molecule, study_system, value_observed) VALUES
  ('Cl.O=C(CCl)NCc1ccnc(Oc2ccccc2F)c1', 'USP16 (UniProt Q9Y5T5)', 0.275),
  ('Cc1ccccc1OCC(=O)N1CCN(C(=O)CCl)CC1', 'USP16 (UniProt Q9Y5T5)', -0.973);

The reported log2 ratio of Biotin-Ahx-Ub-VS probe labelling of the molecule `O=C(CCl)Nc1cc2c(cc1Cl)OCCO2` was 0.406

The reported log2 ratio of Biotin-Ahx-Ub-VS probe labelling of the molecule `Cl.Cn1cnc2cc(CNC(=O)CCl)ccc21` was -0.459

The reported log2 ratio of Biotin-Ahx-Ub-VS probe labelling of the molecule `O=C(CCl)Nc1cccc(NC(=O)c2ccccc2)c1` was 0.163

The reported log2 ratio of Biotin-Ahx-Ub-VS probe labelling of the molecule `COc1cccc(CN(C)C(=O)CCl)c1` was 0.142

The reported log2 ratio of Biotin-Ahx-Ub-VS probe labelling of the molecule `O=C(CCl)N1CCOC2(CCC2)CC1` was 0.117

The reported log2 ratio of Biotin-Ahx-Ub-VS probe labelling of the molecule CCC1c2ccsc2CCN1C(=O)CCl (stereo not drawn) was -0.5

The reported log2 ratio of Biotin-Ahx-Ub-VS probe labelling of the molecule Cl.Cn1nccc1C(NC(=O)CCl)c1ccccc1 (stereo not drawn) was -0.0928

The reported log2 ratio of Biotin-Ahx-Ub-VS probe labelling of the molecule Cc1ccc(CC(NC(=O)CCl)c2ccccn2)cc1.Cl (stereo not drawn) was 0.0921

The reported log2 ratio of Biotin-Ahx-Ub-VS probe labelling of the molecule `O=C(CCl)N1CCOC2(CCC2)C1` was 0.246

The reported log2 ratio of Biotin-Ahx-Ub-VS probe labelling of the molecule `O=C(CCl)NCC(=O)N1CCCC1` was 0.0192

The reported log2 ratio of Biotin-Ahx-Ub-VS probe labelling of the molecule `Cc1ccccc1CN(C)C(=O)CCl` was -0.62

The reported log2 ratio of Biotin-Ahx-Ub-VS probe labelling of the molecule `Cc1ncc2c(n1)CCN(C(=O)CCl)C2` was -0.136

The reported log2 ratio of Biotin-Ahx-Ub-VS probe labelling of the molecule O=C(CCl)N1CCOC(CCc2ccccc2)C1 (stereo not drawn) was -0.411

The reported log2 ratio of Biotin-Ahx-Ub-VS probe labelling of the molecule `COc1ccc(CN(C)C(=O)CCl)cc1` was 0.163

The reported log2 ratio of Biotin-Ahx-Ub-VS probe labelling of the molecule `Cl.O=C(CCl)N1CC(c2ccc(Br)cn2)C1` was -0.253

The reported log2 ratio of Biotin-Ahx-Ub-VS probe labelling of the molecule `C[C@@H](NC(=O)CCl)c1cccc(C#N)c1` was 0.0341

The reported log2 ratio of Biotin-Ahx-Ub-VS probe labelling of the molecule `Cc1ccc(CN(C)C(=O)CCl)o1` was -0.0354

The reported log2 ratio of Biotin-Ahx-Ub-VS probe labelling of the molecule `O=C(CCl)Nc1ccc2c(c1)OC(F)(F)O2` was 0.132

The reported log2 ratio of Biotin-Ahx-Ub-VS probe labelling of the molecule `O=C(CCl)N1CCC[C@@H]1c1ccon1` was -0.0988

The reported log2 ratio of Biotin-Ahx-Ub-VS probe labelling of the molecule CC1(NC(=O)CCl)CCS(=O)(=O)C1 (stereo not drawn) was 0.0352

The reported log2 ratio of Biotin-Ahx-Ub-VS probe labelling of the molecule `O=C(CCl)N1CCN(c2nc3ccccc3o2)CC1` was -0.379
